measuredOn: Bromodomain-containing protein 4 (Homo sapiens, UniProt O60885)
measurementNotes: Inhibition of human His-tagged BRD4 BD1 (49 to 170 residues) using H-SGRGK(Ac)GGK(Ac)GLGK-(Ac)GGAK(Ac)RHRK(Biotin)-OH as substrate preincubated for 30 mins followed by substrate addition measured after 30 mins by TR-FRET assay
Param label: returns t when IC50 < 6 µM, returns f otherwise, including exact equality.

compound | classAssignment
COc1cc(C(=O)N2CCC(=O)Nc3ccccc32)cc(-c2ccccc2)c1 | t
O=C1CCN(C(=O)c2cccc(-c3ccccc3)c2)c2ccccc2N1 | t
COc1cc(C(=O)N2c3ccccc3NC(=O)C2C)cc(-c2ccccc2)c1 (stereo not given) | f
CC1C(=O)Nc2ccccc2N1C(=O)c1cccc(-c2ccccc2)c1 (stereo not given) | f
COc1cc(C(=O)Nc2c(C)noc2C)cc(-c2ccccc2)c1 | f
